test-conditions: human;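 also: human clinical data: severe hepatitis, meaning potentially life-threatening liver failure or clinically observed cases, the value counts how many indexed literature references report it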
measured-quantity: Hepatotoxicity (severe hepatitis)
Format: numeric value only, no unit, no commentary.

compound	Hepatotoxicity (severe hepatitis)
Cc1ncc(CSSCc2cnc(C)c(O)c2CO)c(CO)c1O	1
O=c1[nH]cc(F)c(=O)[nH]1	2
NC(=O)NO [HYDROXYUREA]	1
CN1CCN2c3ccccc3Cc3ccccc3C2C1 (centres undefined)	0
C[C@]12COC(=O)C[C@@H]1CC[C@@H]1[C@@H]2CC[C@@]2(C)[C@H]1CC[C@]2(C)O	0

Sample Cc1onc(-c2c(Cl)cccc2Cl)c1C(=O)N[C@@H]1C(=O)N2[C@@H]1SC(C)(C)[C@@H]2C(=O)O ; Hepatotoxicity (severe hepatitis) observed: 0

Sample CCCC(C)(COC(N)=O)COC(N)=O [MEPROBAMATE] ; Hepatotoxicity (severe hepatitis) observed: 0

# credit: ChEMBL document CHEMBL3137667
